assay details: Half life in human plasma
Assay type: ADME, cell-free
Numbered stars: 1 amine (or outer) side, 2 acyl side, 3 side chain; on linkers, the order of the positions; unused ones are H or OH. Bridge positions count the residues as written; N and C are the ends. Peptide text beside a SMILES is read from it. X1 = O=C(CCC[*:2])[*:1]
reported metric: half-life (min)
Number only, in min; omit the unit.

Task: Fill in reported half-life for this entry: CC[C@H](C)[C@@H]1NC(=O)[C@H](Cc2ccc(OC)cc2)NC(=O)CCCSC[C@@H](C(=O)N2CCC[C@H]2C(=O)N[C@@H](CC(C)C)C(=O)NCC(N)=O)NC(=O)[C@H](CC(N)=O)NC(=O)[C@H](CCC(N)=O)NC1=O [CARBETOCIN] (Y(Me)IQNCPLG-NH2; linker N-5 via X1)
Result: 40

* * *

half-life values by entry
assay details: Half life in human
Assay type: ADME
Bridge positions count the residues as written; N and C are the ends. Square brackets hold non-standard residues; d marks the D form. Peptide text beside a SMILES is read from it. * marks the point of attachment. 2Nal = N[C@@H](Cc1ccc2ccccc2c1)C(=O)O; Benzoyl(4-F) = O=C(c1ccc(F)cc1)*; Cit = NC(=O)NCCC[C@H](N)C(=O)O
Number only, in h; omit the unit.

Record excerpt, results attached:
[
  {
    "compound": "NC(N)=NCCC[C@@H](N)C(=O)N[C@@H](CCCN=C(N)N)C(=O)N1CCC[C@H]1C(=O)N1C[C@H](O)C[C@H]1C(=O)NCC(=O)N[C@@H](Cc1cccs1)C(=O)N[C@@H](CO)C(=O)N1Cc2ccccc2C[C@@H]1C(=O)N1[C@H](C(=O)N[C@@H](CCCN=C(N)N)C(=O)O)C[C@@H]2CCCC[C@@H]21",
    "half-life [h]": 1.4
  },
  {
    "compound": "CC(=O)N[C@@H](CCCNC(=N)N)C(=O)N[C@H]1CSSC[C@@H](C(N)=O)NC(=O)[C@H](Cc2c[nH]c3ccccc23)NC(=O)[C@H](CCCNC(=N)N)NC(=O)[C@@H](Cc2ccccc2)NC(=O)[C@H](Cc2c[nH]cn2)NC(=O)[C@@H](C)NC1=O [SETMELANOTIDE]",
    "half-life [h]": 11
  }
]

Task: Fill in reported half-life for this entry: N=C(N)NCCC[C@H](NC(=O)[C@@H]1CSSC[C@H](NC(=O)[C@H](Cc2ccc3ccccc3c2)NC(=O)[C@H](CCCNC(=N)N)NC(=O)[C@H](CCCNC(=N)N)NC(=O)c2ccc(F)cc2)C(=O)N[C@@H](Cc2ccc(O)cc2)C(=O)N[C@@H](CCCNC(N)=O)C(=O)N[C@@H](CCCCN)C(=O)N[C@@H](CCCCN)C(=O)N2CCC[C@H]2C(=O)N[C@@H](Cc2ccc(O)cc2)C(=O)N[C@@H](CCCNC(=N)N)C(=O)N[C@@H](CCCNC(N)=O)C(=O)N1)C(N)=O ({Benzoyl(4-F)}-RR[2Nal]CY[Cit]KKPYR[Cit]CR-NH2; disulfide 4-13)
Result: 2

* * *

assay details: Half life in iv dosed human
Type: ADME, organism-based
applied conditions: in vivo
reported metric: half-life (h)
Number only, in h; omit the unit.

Task: Fill in reported half-life for this entry: CC(=O)N[C@H](CSSC[C@H](N)C(=O)O)C(=O)N[C@H](C)C(=O)N[C@H](CCCNC(=N)N)C(=O)N[C@H](CCCNC(=N)N)C(=O)N[C@H](CCCNC(=N)N)C(=O)N[C@H](C)C(=O)N[C@H](CCCNC(=N)N)C(N)=O [ETELCALCETIDE]
Result: 72
